- Test system: NCI-H2347
- MEASUREMENT_NOTES: relative viability (nuclei count vs DMSO), 5 days (fraction); higher = more cells survive
- STATED_CONDITIONS: first compound 0.5 µM
Each item that follows carries a reported relative viability.
Answer field: number only, no words.

[
  {
    "MOLECULE": "Nc1ccn([C@@H]2O[C@H](CO)[C@@H](O)[C@@H]2O)c(=O)n1 [Cytarabine] + CC1(C)CCC(c2ccc(Cl)cc2)=C(CN2CCN(c3ccc(C(=O)NS(=O)(=O)c4ccc(N[C@H](CCN5CCOCC5)CSc5ccccc5)c(S(=O)(=O)C(F)(F)F)c4)cc3)CC2)C1 [Navitoclax] (partner 0.5 µM)",
    "EXPERIMENTAL_TARGET": "NCI-H2347",
    "TEST_VALUE": 0.449
  },
  {
    "MOLECULE": "Nc1ccn([C@@H]2O[C@H](CO)[C@@H](O)[C@@H]2O)c(=O)n1 [Cytarabine] + CS(=O)(=O)N1CCN(Cc2cc3nc(-c4cccc5[nH]ncc45)nc(N4CCOCC4)c3s2)CC1 [Pictilisib] (partner 1 µM)",
    "EXPERIMENTAL_TARGET": "NCI-H2347",
    "TEST_VALUE": 0.588
  },
  {
    "MOLECULE": "Nc1ccn([C@@H]2O[C@H](CO)[C@@H](O)[C@@H]2O)c(=O)n1 [Cytarabine] + CS(=O)(=O)CCNCc1ccc(-c2ccc3ncnc(Nc4ccc(OCc5cccc(F)c5)c(Cl)c4)c3c2)o1 [Lapatinib] (partner 2 µM)",
    "EXPERIMENTAL_TARGET": "NCI-H2347",
    "TEST_VALUE": 0.825
  },
  {
    "MOLECULE": "Nc1ccn([C@@H]2O[C@H](CO)[C@@H](O)[C@@H]2O)c(=O)n1 [Cytarabine] + NC(=O)Nc1cc(-c2cccc(F)c2)sc1C(=O)N[C@H]1CCCNC1 [AZD7762] (partner 0.2 µM)",
    "EXPERIMENTAL_TARGET": "NCI-H2347",
    "TEST_VALUE": 0.286
  },
  {
    "MOLECULE": "COc1cc2nccc(Oc3ccc(NC(=O)Nc4cc(C)on4)c(Cl)c3)c2cc1OC [Tivozanib] + Cc1cc(Nc2cc(N3CCN(C)CC3)nc(Sc3ccc(NC(=O)C4CC4)cc3)n2)n[nH]1 [Tozasertib] (partner 0.1 µM)",
    "EXPERIMENTAL_TARGET": "NCI-H2347",
    "TEST_VALUE": 0.511
  }
]

Ask: Give relative viability for the following molecule: Nc1ccn([C@@H]2O[C@H](CO)[C@@H](O)[C@@H]2O)c(=O)n1 [Cytarabine] + Cc1cc(Nc2cc(N3CCN(C)CC3)nc(Sc3ccc(NC(=O)C4CC4)cc3)n2)n[nH]1 [Tozasertib] (partner 0.1 µM)
Reply: 0.402

Ask: Give relative viability for the following molecule: Nc1ccn([C@@H]2O[C@H](CO)[C@@H](O)[C@@H]2O)c(=O)n1 [Cytarabine] + Nc1nc2[nH]cc(CCc3ccc(C(=O)N[C@@H](CCC(=O)O)C(=O)O)cc3)c2c(=O)[nH]1 [Pemetrexed] (partner 0.2 µM)
Reply: 0.391

Ask: Give relative viability for the following molecule: COc1cc2nccc(Oc3ccc(NC(=O)Nc4cc(C)on4)c(Cl)c3)c2cc1OC [Tivozanib] + CC1(C)CCC(c2ccc(Cl)cc2)=C(CN2CCN(c3ccc(C(=O)NS(=O)(=O)c4ccc(N[C@H](CCN5CCOCC5)CSc5ccccc5)c(S(=O)(=O)C(F)(F)F)c4)cc3)CC2)C1 [Navitoclax] (partner 0.5 µM)
Reply: 0.804

---

- System: NCI-H647
- MEASUREMENT_NOTES: relative viability (nuclei count vs DMSO), 5 days (fraction); higher = more cells survive
- STATED_CONDITIONS: first compound 0.006325 µM
VALUE_KIND: relative viability
Answer field: number only, no words.

Consider the following illustrative entries.
[
  {
    "COMPOUND": "CC(=O)O[C@@]12CO[C@@H]1C[C@H](O)[C@@]1(C)C(=O)[C@H](O)C3=C(C)[C@@H](OC(=O)[C@H](O)[C@@H](NC(=O)OC(C)(C)C)c4ccccc4)C[C@@](O)([C@@H](OC(=O)c4ccccc4)[C@H]21)C3(C)C [Docetaxel] + Cc1cc(Nc2cc(N3CCN(C)CC3)nc(Sc3ccc(NC(=O)C4CC4)cc3)n2)n[nH]1 [Tozasertib] (partner 0.1 µM)",
    "relative viability": 0.132
  },
  {
    "COMPOUND": "CC(=O)O[C@@]12CO[C@@H]1C[C@H](O)[C@@]1(C)C(=O)[C@H](O)C3=C(C)[C@@H](OC(=O)[C@H](O)[C@@H](NC(=O)OC(C)(C)C)c4ccccc4)C[C@@](O)([C@@H](OC(=O)c4ccccc4)[C@H]21)C3(C)C [Docetaxel] + Nc1nc2[nH]cc(CCc3ccc(C(=O)N[C@@H](CCC(=O)O)C(=O)O)cc3)c2c(=O)[nH]1 [Pemetrexed] (partner 0.2 µM)",
    "relative viability": 0.122
  },
  {
    "COMPOUND": "CC(=O)O[C@@]12CO[C@@H]1C[C@H](O)[C@@]1(C)C(=O)[C@H](O)C3=C(C)[C@@H](OC(=O)[C@H](O)[C@@H](NC(=O)OC(C)(C)C)c4ccccc4)C[C@@](O)([C@@H](OC(=O)c4ccccc4)[C@H]21)C3(C)C [Docetaxel] + C[C@@H](Oc1cc(-c2cnn(C3CCNCC3)c2)cnc1N)c1c(Cl)ccc(F)c1Cl [Crizotinib] (partner 1 µM)",
    "relative viability": 0.117
  }
]

Now look at this entry.
Ask: Give relative viability for the following compound: CC(=O)O[C@@]12CO[C@@H]1C[C@H](O)[C@@]1(C)C(=O)[C@H](O)C3=C(C)[C@@H](OC(=O)[C@H](O)[C@@H](NC(=O)OC(C)(C)C)c4ccccc4)C[C@@](O)([C@@H](OC(=O)c4ccccc4)[C@H]21)C3(C)C [Docetaxel] + O=C(c1cc(Cc2n[nH]c(=O)c3ccccc23)ccc1F)N1CCN(C(=O)C2CC2)CC1 [Olaparib] (partner 8 µM)
Reply: 0.0764

---

- Tested on: NCI-H2085
- MEASUREMENT_NOTES: relative viability (nuclei count vs DMSO), 5 days (fraction); higher = more cells survive
- STATED_CONDITIONS: first compound 0.1265 µM
Mark Condition met only for relative viability values smaller than 0.5; exact matches and larger values are Condition not met.

Please review the following examples before continuing.
[
  {
    "MOLECULE": "Cc1sc2c(c1C)C(c1ccc(Cl)cc1)=N[C@@H](CC(=O)OC(C)(C)C)c1nnc(C)n1-2 [JQ1] + COc1cccc2cc(-c3nc([C@H]4CC[C@H](C(=O)O)CC4)n4ncnc(N)c34)[nH]c12 [OSI-027] (partner 0.5 µM)",
    "CLASS_LABEL": "Condition not met"
  },
  {
    "MOLECULE": "Cc1sc2c(c1C)C(c1ccc(Cl)cc1)=N[C@@H](CC(=O)OC(C)(C)C)c1nnc(C)n1-2 [JQ1] + N=C(N)NC(=N)NCCc1ccccc1 [Phenformin] (partner 250 µM)",
    "CLASS_LABEL": "Condition not met"
  },
  {
    "MOLECULE": "Cc1sc2c(c1C)C(c1ccc(Cl)cc1)=N[C@@H](CC(=O)OC(C)(C)C)c1nnc(C)n1-2 [JQ1] + Cc1nc(NC(=O)N2CCC[C@H]2C(N)=O)sc1-c1ccnc(C(C)(C)C(F)(F)F)c1 [Alpelisib] (partner 2 µM)",
    "CLASS_LABEL": "Condition not met"
  }
]

Ask: Regarding Cc1sc2c(c1C)C(c1ccc(Cl)cc1)=N[C@@H](CC(=O)OC(C)(C)C)c1nnc(C)n1-2 [JQ1] + CCNC(=O)c1noc(-c2cc(C(C)C)c(O)cc2O)c1-c1ccc(CN2CCOCC2)cc1 [Luminespib] (partner 0.01 µM) , kindly confirm whether its relative viability is beneath 0.5.
Reply: Condition met

Ask: Regarding Cc1sc2c(c1C)C(c1ccc(Cl)cc1)=N[C@@H](CC(=O)OC(C)(C)C)c1nnc(C)n1-2 [JQ1] + COc1cc2c(Oc3ccc(NC(=O)C4(C(=O)Nc5ccc(F)cc5)CC4)cc3F)ccnc2cc1OCCCN1CCOCC1 [Foretinib] (partner 0.25 µM) , kindly confirm whether its relative viability is beneath 0.5.
Reply: Condition not met

---

- System: LU99A
- MEASUREMENT_NOTES: relative viability (nuclei count vs DMSO), 5 days (fraction); higher = more cells survive
- STATED_CONDITIONS: first compound 1.265 µM
VALUE_KIND: relative viability
Answer field: number only, no words.

Ask: Jot down relative viability (LU99A) of Cc1sc2c(c1C)C(c1ccc(Cl)cc1)=N[C@@H](CC(=O)OC(C)(C)C)c1nnc(C)n1-2 [JQ1] + COc1cccc2cc(-c3nc([C@H]4CC[C@H](C(=O)O)CC4)n4ncnc(N)c34)[nH]c12 [OSI-027] (partner 0.5 µM) .
Reply: 0.234
